# credit: patent US12091454B2

Tested on: FaDu human head and neck cancer xenograft
Assay: Xenograft model of anti-NTSR1 ADCs (head and neck cancer)
Type: in vivo, male NOD SCID mice
Conditions: 5 mpk, IV, BIW × 3; Day 5

| molecule | result.unit | TGI % (1-T/C) Day 5 |
| --- | --- | --- |
| αNTSR1 (AKT2 Hu/Hu) 4seco-DUBA: antibody-drug conjugate of humanized antibody AKT2 HuHu with seco-DUBA payload (conjugate) heavy chain: QVQLVQSGAEVKKPGASVKVSCKASGYAFTSSWIHWVRQAPGQGLEWMGQIRPNSGNTYYNEKFKVRVTMTRDTSTSTVYMELSSLRSEDTAVYYCARYHYGFDYWGQGTLVTVSS light chain: DIVMTQTPLSLSVTPGQPASISCRSSQSIVHSNGNTYLEWYLQKPGQSPQLLIYKVSNRFSGVPDRFSGSGSGTDFTLKISRVEAEDVGVYYCFQGAHLPWTFGQGTKVEIK | % | 17.5 |
